procedure.summary: Inhibition of WNT signaling in human T-Rex HEK293 Tet-O cells harboring constitutively active VP16-TCF in absence of beta-catenin after 4 days by luciferase reporter assay
Assay type: cell-based
applied.conditions: HEK293, 96 h
pIC50: −log10 of the molar value.
measurement.name: pIC50

P. NC(=O)C1CCN(c2c(Cl)cncc2Cl)CC1
Q. COc1ccc(-c2cncc(Cl)c2N2CCC(C(N)=O)CC2)cc1
Q: Name the one with the greater pIC50 value, either P or Q as given. Refer to your chosen item by its label in the answer.
Result: Q

* * *

# clearance per record follows
procedure.summary: Clearance in NMRI mouse at 0.2 mg/kg, iv
Format: ADME, organism-based
Set-up: dose 0.2 mg/kg, route intravenous
applied.conditions: in vivo
Report the value in mL/min/kg with no unit label.

Q: Which clearance value is on record for `Cn1cc(-c2ccc(-c3cncc(Cl)c3N3CCC4(CCNC4=O)CC3)cc2)cn1` ?
Result: 31

Lab note: next compound to report on.
Q: Entry `O=C1NCCC12CCN(c1c(Cl)cncc1-c1ccc(N3CCOCC3)cc1)CC2` : reported clearance = ?
Result: 65

Where do the numbers come from? From ChEMBL document CHEMBL3407438.
